target: UniProt:P06401; assay: PR binding assay, baculovirus extract, [3H] progesterone; details: read-out: PR Binding Ki
pKi: −log10 of the molar value.
Output schema: class label derived from pKi. Mapping: LOW = under 7, MEDIUM = from 7 up to 8, HIGH = 8 and over

> print(dat)
                                   compound  group.label
1  CC1=CC(C)(C)Nc2cc(C)c3c(c21)/C(=C/c1ccccc1)Oc1ccc(F)cc1-3 [Compound 377]       MEDIUM
2  CC1=CC(C)(C)Nc2ccc3c(c21)C(c1ccccc1)Oc1ccccc1-3 (racemic) [Compound 161]         HIGH
3  CCCCC1Oc2ccccc2-c2ccc3c(c21)C(C)C(O)(CCCC)C(C)(C)N3 (racemic) [Compound 385]       MEDIUM
4  CC1=CC(C)(C)Nc2ccc(-n3cnc(Cl)c3Cl)cc21 [Compound 103]          LOW
5  CC1=CC(C)(C)Nc2c(F)cc(-c3cccc([N+](=O)[O-])c3)cc21 [Compound 291]         HIGH

====

biological target: human mineralocorticoid receptor (MR) (Homo sapiens, UniProt P08235); test: Co-transfection assay, MR antagonist activity, CV-1 cells (pRShMR); details: antagonist mode, aldosterone at its EC50; IC50; read-out: MR Antagonist CV-1 Cells Potency
Sequence (P08235 whole entry): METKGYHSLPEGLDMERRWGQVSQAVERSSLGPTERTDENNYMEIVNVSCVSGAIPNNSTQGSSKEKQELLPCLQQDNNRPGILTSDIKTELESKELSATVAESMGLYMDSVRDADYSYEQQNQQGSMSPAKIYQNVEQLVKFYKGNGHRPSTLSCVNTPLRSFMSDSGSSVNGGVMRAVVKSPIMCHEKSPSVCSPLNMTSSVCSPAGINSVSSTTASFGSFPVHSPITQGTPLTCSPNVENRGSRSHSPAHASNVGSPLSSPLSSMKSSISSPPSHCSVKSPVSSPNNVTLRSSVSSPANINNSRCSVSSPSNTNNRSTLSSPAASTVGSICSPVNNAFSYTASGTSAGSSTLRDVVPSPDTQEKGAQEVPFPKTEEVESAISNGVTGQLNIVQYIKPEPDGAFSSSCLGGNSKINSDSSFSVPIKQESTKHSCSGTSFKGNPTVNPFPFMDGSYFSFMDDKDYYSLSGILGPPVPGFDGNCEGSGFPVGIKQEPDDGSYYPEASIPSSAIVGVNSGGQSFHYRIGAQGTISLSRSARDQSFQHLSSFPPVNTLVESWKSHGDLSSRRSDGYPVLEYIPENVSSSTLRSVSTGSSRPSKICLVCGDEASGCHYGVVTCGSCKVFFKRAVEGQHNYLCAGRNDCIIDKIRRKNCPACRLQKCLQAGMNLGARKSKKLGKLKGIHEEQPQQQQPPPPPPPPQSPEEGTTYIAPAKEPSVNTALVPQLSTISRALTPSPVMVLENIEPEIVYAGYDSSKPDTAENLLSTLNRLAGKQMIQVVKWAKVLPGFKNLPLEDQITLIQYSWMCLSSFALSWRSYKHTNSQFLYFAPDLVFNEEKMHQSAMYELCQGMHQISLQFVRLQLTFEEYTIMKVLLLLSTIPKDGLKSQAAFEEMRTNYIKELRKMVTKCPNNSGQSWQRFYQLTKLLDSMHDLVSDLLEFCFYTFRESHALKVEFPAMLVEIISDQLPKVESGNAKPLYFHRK
The reader will find reported IC50 values listed item by item below.
quantity name: IC50 (nM)

> print(dat)
                                   compound  quantity.name  units.of.measure  reported
1  CC1=CC(C)(C)Nc2ccc3c(c21)C(c1ccc(C)cc1)Oc1ccccc1-3 (racemic) [Compound 167]           IC50                nM      2000
2  C=C1CC(C)(C)Nc2ccc3c(c21)C(c1cccc(F)c1)Oc1ccccc1-3 (racemic) [Compound 192]           IC50                nM       320
3  CC1=CC(C)(C)Nc2ccc3c(c21)C(c1ccccc1)Oc1ccccc1-3 (racemic) [Compound 161]           IC50                nM      1000
4  CC1=CC(C)(C)Nc2ccc3c(c21)C(c1ccsc1)Oc1ccccc1-3 (racemic) [Compound 170]           IC50                nM       410
5  CC1=CC(C)(C)Nc2ccc3c(c21)C(c1cccc(C(F)(F)F)c1)Oc1ccccc1-3 (racemic) [Compound 195]           IC50                nM      1900

====

molecular target: human androgen receptor (AR) (Homo sapiens); construct: expressed in transfected cells; host or cells: CV-1 cells, transient transfection; test: Co-transfection assay, AR agonist and antagonist activity, CV-1 cells (pRShAR); format: cell-based; conditions: Table 2; agonist mode; relative to DHT
Sequence (P10275 whole entry): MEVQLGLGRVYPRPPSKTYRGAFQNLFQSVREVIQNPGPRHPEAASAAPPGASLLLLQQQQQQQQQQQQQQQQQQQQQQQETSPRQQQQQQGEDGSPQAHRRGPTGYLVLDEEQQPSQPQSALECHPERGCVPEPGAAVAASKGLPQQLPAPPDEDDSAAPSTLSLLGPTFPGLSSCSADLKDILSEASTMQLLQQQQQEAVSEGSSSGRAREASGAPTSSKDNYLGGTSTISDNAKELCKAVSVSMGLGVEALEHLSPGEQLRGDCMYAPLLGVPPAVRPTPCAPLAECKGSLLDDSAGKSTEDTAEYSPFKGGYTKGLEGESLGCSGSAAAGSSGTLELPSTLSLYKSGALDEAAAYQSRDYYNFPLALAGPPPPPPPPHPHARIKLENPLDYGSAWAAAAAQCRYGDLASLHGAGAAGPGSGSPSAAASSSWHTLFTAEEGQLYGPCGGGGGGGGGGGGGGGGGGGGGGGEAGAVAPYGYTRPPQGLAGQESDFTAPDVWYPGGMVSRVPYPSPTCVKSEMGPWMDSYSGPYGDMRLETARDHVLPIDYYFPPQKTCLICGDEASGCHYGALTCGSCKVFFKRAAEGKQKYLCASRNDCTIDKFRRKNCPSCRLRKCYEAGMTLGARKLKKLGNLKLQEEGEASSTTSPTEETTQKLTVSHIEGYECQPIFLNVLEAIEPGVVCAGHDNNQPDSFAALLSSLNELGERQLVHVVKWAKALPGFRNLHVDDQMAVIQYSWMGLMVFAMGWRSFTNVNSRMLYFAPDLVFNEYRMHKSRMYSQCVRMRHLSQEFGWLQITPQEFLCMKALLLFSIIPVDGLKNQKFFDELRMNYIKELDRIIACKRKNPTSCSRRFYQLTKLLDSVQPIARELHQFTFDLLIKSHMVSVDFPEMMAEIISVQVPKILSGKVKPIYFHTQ
Listed here are compounds together with their documented AR Agonist CV-1 Cells Efficacy (%).
quantity name: AR Agonist CV-1 Cells Efficacy (%)

> print(dat)
                                   compound                       quantity.name  units.of.measure  reported
1      O=c1cc(C(F)(F)F)c2cc3c(cc2[nH]1)NCC3  AR Agonist CV-1 Cells Efficacy (%)                 %        29
2  CCC1CCNc2cc3oc(=O)cc(C(F)(F)F)c3cc21 (racemic)  AR Agonist CV-1 Cells Efficacy (%)                 %       118
3  CC1=CC(C)(C)Nc2cc3oc(=O)cc(C(F)(F)F)c3cc21  AR Agonist CV-1 Cells Efficacy (%)                 %        96

====

molecular target: human AR (Homo sapiens); construct: expressed in transfected cells; host or cells: COS-1 cells, transient transfection; experiment: AR whole cell binding assay, transfected COS-1 cells, 3H-DHT
Sequence (P10275 whole entry): as the sequence (P10275 whole entry) above
pKi: −log10 of the molar value.
quantity name: pKi

> print(dat)
                                   compound  reported
1  CC1=CC(C)(C)Nc2cc3oc(=O)cc(C(F)(F)F)c3cc21 [Compound 238]      7.36
2  CC1CC(C)(C)Nc2cc3oc(=O)cc(-c4ccoc4)c3cc21 (racemic) [Compound 405]      8.22
3  CC1=CC(C)(C)N(C)c2cc3oc(=O)cc(C(F)(F)F)c3cc21 [Compound 265]      7.64
4  CCC1CCNc2cc3oc(=O)cc(C(F)(F)F)c3cc21 (racemic) [Compound 414]      9.52
5  CC1=CC(C)(C)Nc2cc3oc(=O)cc(C(F)(F)C(F)(F)F)c3cc21 [Compound 256]      5.35

====

biological target: human androgen receptor (AR) (Homo sapiens); construct: expressed in transfected cells; host or cells: CV-1 cells, transient transfection; experiment: Co-transfection assay, AR agonist and antagonist activity, CV-1 cells (pRShAR); format: cell-based; details: read-out: AR Agonist CV-1 Cells Potency; Table 2; agonist mode; EC50
pEC50: −log10 of the molar value.
quantity name: pEC50

> print(dat)
                                        mol  quantity.name  reported
1  CC1=CC(C)(C)Nc2cc3oc(=O)cc(C(F)(F)C(F)(F)F)c3cc21          pEC50    < 5.00
2  CC1=CC(C)(C)N(C)c2cc3oc(=O)cc(C(F)(F)F)c3cc21          pEC50    < 5.00

====

As shown below, each of these compounds has a reported IC50 value.
target: human PR-B (Homo sapiens, UniProt P06401); construct: expressed in transfected cells; host or cells: CV-1 cells (African green monkey kidney fibroblasts), transient transfection; assay: Co-transfection assay, PR agonist and antagonist activity, CV-1 cells; format: cell-based; conditions: read-out: PR Antagonist CV-1 Cells Potency;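 note: luciferase reporter driven by a hormone response element, co-transfected with human PR-B into CV-1 monkey kidney cells, agonists raise and antagonists lower the reporter signal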
Sequence (P06401 whole entry): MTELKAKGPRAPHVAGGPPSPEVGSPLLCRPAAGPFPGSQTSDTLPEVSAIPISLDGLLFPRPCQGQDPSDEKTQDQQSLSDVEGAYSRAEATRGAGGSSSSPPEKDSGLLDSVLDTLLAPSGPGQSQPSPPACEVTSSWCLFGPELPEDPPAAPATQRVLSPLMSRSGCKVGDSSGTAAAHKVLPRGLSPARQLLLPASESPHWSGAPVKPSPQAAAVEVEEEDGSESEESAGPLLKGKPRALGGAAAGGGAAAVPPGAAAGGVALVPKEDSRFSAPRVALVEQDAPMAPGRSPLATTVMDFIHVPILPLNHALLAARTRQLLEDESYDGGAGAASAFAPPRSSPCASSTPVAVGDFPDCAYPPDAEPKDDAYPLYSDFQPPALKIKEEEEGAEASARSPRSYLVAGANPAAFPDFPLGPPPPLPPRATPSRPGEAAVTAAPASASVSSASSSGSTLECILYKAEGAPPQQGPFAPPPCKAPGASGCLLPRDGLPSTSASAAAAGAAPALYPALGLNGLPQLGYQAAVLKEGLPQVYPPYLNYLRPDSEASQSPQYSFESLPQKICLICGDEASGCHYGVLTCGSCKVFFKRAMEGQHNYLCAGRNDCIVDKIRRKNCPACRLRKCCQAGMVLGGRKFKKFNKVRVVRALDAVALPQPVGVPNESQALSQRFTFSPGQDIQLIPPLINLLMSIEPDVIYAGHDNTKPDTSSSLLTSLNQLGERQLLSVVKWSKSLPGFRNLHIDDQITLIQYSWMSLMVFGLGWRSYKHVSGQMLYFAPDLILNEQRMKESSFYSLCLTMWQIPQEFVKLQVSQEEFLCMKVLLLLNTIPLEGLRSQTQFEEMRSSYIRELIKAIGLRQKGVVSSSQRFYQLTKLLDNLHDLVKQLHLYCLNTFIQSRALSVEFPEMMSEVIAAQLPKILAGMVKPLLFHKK
quantity name: IC50 (µM)

> print(dat)
                                    compound  quantity.name  units.of.measure  result.qualifier  reported
 1  CC1=CC(C)(C)Nc2cc(C)c3c(c21)/C(=C/c1ccccc1)Oc1ccc(F)cc1-3           IC50                µM                 >        10
 2   CC1=CC(C)(C)Nc2ccc(-c3cccc(Cl)c3Cl)cc21           IC50                µM                 =     0.138
 3  CC1=CC(C)(C)Nc2ccc3c(c21)/C(=C/c1ccccc1C)Oc1ccc(F)cc1-3           IC50                µM                 >        10
 4  CC1=CC(C)(C)Nc2ccc3c(c21)COc1c(Cl)cccc1-3           IC50                µM                 =      0.21
 5  CC1CC(C)(C)Nc2ccc(-c3cc(F)cc(C#N)c3)cc21 (racemic)           IC50                µM                 =     0.035
 6  CC1=CC(C)(C)Nc2c(F)cc(-c3cccc([N+](=O)[O-])c3)cc21           IC50                µM                 =     0.046
 7  CC1(C)Nc2ccc3c(c2C(=O)C1(C)C)C(c1ccc(Cl)cc1)Oc1ccccc1-3 (racemic)           IC50                µM                 =      0.35
 8  CC1=CC(C)(C)Nc2ccc3c(c21)C(c1cccc(C(F)(F)F)c1)Oc1ccccc1-3 (racemic)           IC50                µM                 >        10
 9  CC1=CC(C)(C)Nc2ccc3c(c21)C(c1cccc(F)c1)Oc1ccccc1-3 (racemic)           IC50                µM                 =      0.15
10  CCCCC1Oc2ccccc2-c2ccc3c(c21)C(C)C(O)(CCCC)C(C)(C)N3 (racemic)           IC50                µM                 =       2.3
11  CC1=CC(C)(C)Nc2ccc(-c3cccc([N+](=O)[O-])c3)c(Cl)c21           IC50                µM                 =      0.26
12    CC1=CC(C)(C)Nc2ccc(-c3cccc(C#N)c3)cc21           IC50                µM                 =     0.024
13  CC1C(=O)C(C)(C)Nc2ccc(-c3cc(F)cc(C#N)c3)cc21 (stereo not shown)           IC50                µM                 =     0.155
